test system: RPMI-8226 leukemia; assay: NCI tumour cell line growth inhibition, 48 h

>  <Query smiles>
O=C(Nc1ccc(-n2ccc3c(NC(=O)c4ccccc4)nccc32)cc1)c1cccc(C(F)(F)F)c1

>  <GI50>
614 nM

$$$$
>  <Query smiles>
CC1=C2[C@H]3OC(=O)[C@@H](C)[C@@H]3CC[C@@]2(C)C=CC1=O

>  <GI50>
> 100000 nM

$$$$
>  <Query smiles>
CCCCCCC/C(=N\N=C(N)N)c1ccc(O)cc1

>  <GI50>
1710 nM

$$$$

----------
tested on: 786-0 renal; test: NCI tumour cell line growth inhibition, 48 h
Property: GI50

>  <Molecule>
O=c1c2sc3ccccc3c2nnn1-c1ccc(F)c(Cl)c1

>  <Property>
GI50

>  <Meas value>
3.62 µM

$$$$
>  <Molecule>
O=C1C(C(Nc2ccccc2)c2ccccc2)=C([O-])c2ccccc21.O=C1C(C(Nc2ccccc2)c2ccccc2)=C([O-])c2ccccc21.[Co+2] (centres undefined)

>  <Property>
GI50

>  <Meas value>
7.11 µM

$$$$
>  <Molecule>
COc1ccc(NC(=O)c2sc3nc(C)c(C(=O)/C=C/c4ccccc4)cc3c2N)cc1

>  <Property>
GI50

>  <Meas value>
0.821 µM

$$$$
>  <Molecule>
O=[N+]([O-])[O][Sn]([O][Sn]([O][N+](=O)[O-])([c]1ccccc1)[c]1ccccc1)([c]1ccccc1)[c]1ccccc1

>  <Property>
GI50

>  <Meas value>
> 100 µM

$$$$

----------
test system: K-562 leukemia; experiment: NCI tumour cell line growth inhibition, 48 h
Recorded measurements of TGI, one per entry
Property: TGI

>  <Molecule>
CC[C@H](CC[C@@H](C)[C@H]1CC[C@H]2[C@@H]3CC=C4C[C@@H](O)CC[C@]4(C)[C@H]3CC[C@]12C)C(C)C

>  <Test target>
K-562 leukemia

>  <Meas value>
> 100 µM

$$$$
>  <Molecule>
O=C1CS/C(=N/S(=O)(=O)c2ccc(N3N=C4c5ccccc5CC4C3c3cccs3)cc2)N(c2ccccc2)C1 (stereo not given)

>  <Test target>
K-562 leukemia

>  <Meas value>
93.5 µM

$$$$
>  <Molecule>
Cc1ccc(NC(=O)CSc2nnc(Cc3ccccc3)o2)c(C)c1

>  <Test target>
K-562 leukemia

>  <Meas value>
> 100 µM

$$$$
>  <Molecule>
CC1(C)CC2(S(=O)(=O)c3ccccc3)ON1CC2S(=O)(=O)c1ccccc1 (stereo not given)

>  <Test target>
K-562 leukemia

>  <Meas value>
> 100 µM

$$$$
>  <Molecule>
Cc1nnc2sc(Cc3cnc(N)s3)nn12

>  <Test target>
K-562 leukemia

>  <Meas value>
> 100 µM

$$$$
>  <Molecule>
OC(c1ccc(F)cc1)(c1ccc(F)cc1)C1CC1

>  <Test target>
K-562 leukemia

>  <Meas value>
> 100 µM

$$$$
>  <Molecule>
C[Si](C)(C)CC(N)=O

>  <Test target>
K-562 leukemia

>  <Meas value>
> 100 µM

$$$$
>  <Molecule>
COc1ccc(C(=O)NCCNc2nccc(-c3c(-c4ccc(F)cc4)nc4sccn34)n2)cc1

>  <Test target>
K-562 leukemia

>  <Meas value>
> 100 µM

$$$$
>  <Molecule>
CC(=O)CC1(O)C(=O)c2c(Br)sc(Br)c2C1=O

>  <Test target>
K-562 leukemia

>  <Meas value>
91 µM

$$$$
>  <Molecule>
COc1ccc(/C=C/C(=O)Oc2ccc(/C=C3\CCCCC3=O)cc2)cc1

>  <Test target>
K-562 leukemia

>  <Meas value>
> 100 µM

$$$$

----------
Recorded measurements of TGI, one per entry
tested on: NCI-H226 lung; test: NCI tumour cell line growth inhibition, 48 h

>  <Compound>
CO/N=C(\COc1ccc2c(=O)cc(-c3ccccc3)oc2c1)c1ccc(F)cc1

>  <Test target>
NCI-H226 lung

>  <Qualifier symbol>
>

>  <TGI (µM)>
100

$$$$
>  <Compound>
Nc1nc(Cl)c(/C=N\O)c(NCC2(CO)CC(=O)C2)n1

>  <Test target>
NCI-H226 lung

>  <Qualifier symbol>
>

>  <TGI (µM)>
100

$$$$
>  <Compound>
CSC1C=C(C(C)C)CCC1(C)SC (stereo not given)

>  <Test target>
NCI-H226 lung

>  <Qualifier symbol>
=

>  <TGI (µM)>
31.6

$$$$
>  <Compound>
C[C@]12CC[C@H](O)C[C@@H]1CC[C@@H]1[C@@H]2CC[C@]2(C)[C@@H](c3cc(C(F)(F)F)n[nH]3)CC[C@@H]12

>  <Test target>
NCI-H226 lung

>  <Qualifier symbol>
=

>  <TGI (µM)>
36.7

$$$$
>  <Compound>
C=C[C@@]1(C)CC2(C=C(CO)C(O)O2)Oc2c1c(=O)oc1cccc(C)c21 (stereo not given in full)

>  <Test target>
NCI-H226 lung

>  <Qualifier symbol>
=

>  <TGI (µM)>
35.5

$$$$
>  <Compound>
NCCSCC(N)C(=O)O (stereo not given)

>  <Test target>
NCI-H226 lung

>  <Qualifier symbol>
>

>  <TGI (µM)>
497

$$$$
>  <Compound>
O=S(=O)(N/N=C/c1c(Cl)cccc1Cl)c1ccccc1

>  <Test target>
NCI-H226 lung

>  <Qualifier symbol>
>

>  <TGI (µM)>
100

$$$$
>  <Compound>
C/C1=C/C2OC(=O)C3(C)C2C(CC2(C)OC1=CC2=O)OC3(O)C(C)C (stereo not given)

>  <Test target>
NCI-H226 lung

>  <Qualifier symbol>
>

>  <TGI (µM)>
78.6

$$$$
>  <Compound>
C=C(CC[C@@H](C)[C@H]1CC[C@H]2[C@@H]3C[C@@H](O)[C@H]4C[C@@H](O)CC[C@]4(CO)[C@H]3CC[C@]12C)C(C)C

>  <Test target>
NCI-H226 lung

>  <Qualifier symbol>
=

>  <TGI (µM)>
18.4

$$$$
>  <Compound>
Oc1cccc2cc(Cl)cnc12

>  <Test target>
NCI-H226 lung

>  <Qualifier symbol>
=

>  <TGI (µM)>
97.5

$$$$
>  <Compound>
CC12CC[C@@H]3c4cc5c(cc4CC[C@H]3[C@@H]1CCC2O)oc1cc(F)ccc15 (stereo not given in full)

>  <Test target>
NCI-H226 lung

>  <Qualifier symbol>
=

>  <TGI (µM)>
53

$$$$
>  <Compound>
O=c1[nH]c2ccccc2nc1CBr

>  <Test target>
NCI-H226 lung

>  <Qualifier symbol>
=

>  <TGI (µM)>
37.3

$$$$
>  <Compound>
c1cc2ccc3cc2cc1CNCCN1CCNCc2ccc4ccc(cc4c2)CNCCN(CCNC3)CCNCc2ccc3ccc(cc3c2)CNCC1

>  <Test target>
NCI-H226 lung

>  <Qualifier symbol>
=

>  <TGI (µM)>
6.11

$$$$
>  <Compound>
CN(C)c1ccc(/C=C(/C(=O)O)c2csc(-c3nc(/C(=C\c4ccc(N(C)C)cc4)C(=O)O)cs3)n2)cc1

>  <Test target>
NCI-H226 lung

>  <Qualifier symbol>
>

>  <TGI (µM)>
100

$$$$
>  <Compound>
C[PH+](C)C.C[PH+](C)C.[Au]

>  <Test target>
NCI-H226 lung

>  <Qualifier symbol>
=

>  <TGI (µM)>
34.4

$$$$
>  <Compound>
O=c1cc(N2CCOCC2)oc2c(-c3ccc4c(c3)OCCO4)csc12

>  <Test target>
NCI-H226 lung

>  <Qualifier symbol>
=

>  <TGI (µM)>
11.7

$$$$
>  <Compound>
O=[N+]([O-])[O][Sn]([O][Sn]([O][N+](=O)[O-])([c]1ccccc1)[c]1ccccc1)([c]1ccccc1)[c]1ccccc1

>  <Test target>
NCI-H226 lung

>  <Qualifier symbol>
>

>  <TGI (µM)>
100

$$$$
>  <Compound>
O=C1c2ccccc2C2(O)Nc3c(ccc4ccccc34)C12O (stereo not given)

>  <Test target>
NCI-H226 lung

>  <Qualifier symbol>
>

>  <TGI (µM)>
100

$$$$
>  <Compound>
NC(=O)[C@@H](CCC(F)(F)F)N(Cc1ccc(-c2ncon2)cc1F)S(=O)(=O)c1ccc(Cl)cc1

>  <Test target>
NCI-H226 lung

>  <Qualifier symbol>
>

>  <TGI (µM)>
100

$$$$
>  <Compound>
O=C1N=C(c2c(-c3[nH]c(=O)c4ccc(Br)cc4c3O)c(O)c3ccccc3c2O)C(=O)c2cc(Br)ccc21

>  <Test target>
NCI-H226 lung

>  <Qualifier symbol>
=

>  <TGI (µM)>
0.937

$$$$

----------
test system: NCI-H460 lung; experiment: NCI tumour cell line growth inhibition, 48 h
Recorded measurements of TGI, one per entry
Property: TGI (µM)

>  <Molecule>
C=C1C[C@H](O)[C@H]2C(C[Se]c3ccccc3)C(=O)O[C@@H]2[C@H]2[C@H](C)C(O)C[C@@H]12 (stereo not given in full)

>  <Test target>
NCI-H460 lung

>  <Property>
TGI

>  <Value unit>
µM

>  <Qualifier symbol>
>

>  <Meas value>
100

$$$$
>  <Molecule>
COc1nc(C(=O)O)c(Cl)c(OC)c1Cl

>  <Test target>
NCI-H460 lung

>  <Property>
TGI

>  <Value unit>
µM

>  <Qualifier symbol>
>

>  <Meas value>
100

$$$$
>  <Molecule>
Cn1ncc(NCCn2cnc3c2c(=O)n(C)c(=O)n3C)c(Cl)c1=O

>  <Test target>
NCI-H460 lung

>  <Property>
TGI

>  <Value unit>
µM

>  <Qualifier symbol>
>

>  <Meas value>
100

$$$$
>  <Molecule>
N#Cc1c(-c2ccc(Cl)cc2)cc(-c2cc(O)ccc2O)nc1N

>  <Test target>
NCI-H460 lung

>  <Property>
TGI

>  <Value unit>
µM

>  <Qualifier symbol>
=

>  <Meas value>
4.87

$$$$
>  <Molecule>
C[PH+](C)C.C[PH+](C)C.[Au]

>  <Test target>
NCI-H460 lung

>  <Property>
TGI

>  <Value unit>
µM

>  <Qualifier symbol>
>

>  <Meas value>
100

$$$$
>  <Molecule>
CO[C@@H]1[C@H](O)CC[C@]2(CO2)[C@H]1[C@@]1(C)O[C@@H]1CC=C(C)C

>  <Test target>
NCI-H460 lung

>  <Property>
TGI

>  <Value unit>
µM

>  <Qualifier symbol>
>

>  <Meas value>
200

$$$$
>  <Molecule>
C=C1C(=O)C2=C[C@H]1C[C@H](O)C(=O)[C@]1(C)CCCC(C)(C)[C@H]1C[C@H]2O

>  <Test target>
NCI-H460 lung

>  <Property>
TGI

>  <Value unit>
µM

>  <Qualifier symbol>
=

>  <Meas value>
8.77

$$$$
>  <Molecule>
O=C1/C(=C/c2ccc(Cl)cc2)CCC/C1=C\c1ccc(O)c(CN2CCCCC2)c1

>  <Test target>
NCI-H460 lung

>  <Property>
TGI

>  <Value unit>
µM

>  <Qualifier symbol>
=

>  <Meas value>
94.3

$$$$
>  <Molecule>
C=CCNC(=O)NNC(O)(C(=O)OCC)C(F)(F)F (stereo not given)

>  <Test target>
NCI-H460 lung

>  <Property>
TGI

>  <Value unit>
µM

>  <Qualifier symbol>
>

>  <Meas value>
100

$$$$
>  <Molecule>
CCOC1c2cc(OC)c(OC)cc2-c2ccc3ccccc3c2N1C (stereo not given)

>  <Test target>
NCI-H460 lung

>  <Property>
TGI

>  <Value unit>
µM

>  <Qualifier symbol>
=

>  <Meas value>
35.5

$$$$

The measurements presented in this section are drawn from PubChem BioAssay (NCI).
